system: 323965-272-R-J2-PDC complex spheroid viability; assay: Anticancer human tumor 323965-272-R-J2-PDC patient-derived pancreatic carcinoma cell line growth inhibition [CLK]; settings: second compound 0.1 µM; first compound 0.316 µM; active compounds read low;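 further: spheroids exposed to agents for seven days before readout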
Hi! Just check whether viability, T/C is below 60%. Below gives rule met, equal or above gives rule not met.

Example entries begin here.
- COMPOUND: "Nc1ccccc1NC(=O)c1ccc(CNC(=O)OCc2cccnc2)cc1 + CN1CCN(c2cc(C(=O)Nc3cc4cc(-c5cnn(C)c5)ccc4cn3)ccn2)CC1"
  GROUP_LABEL: "rule not met"
- COMPOUND: "COc1ccc([C@@H](O)c2cc(-c3ncnc4cc(N5CCOCC5)ccc34)c(F)cc2Cl)nn1 + CNC(=O)c1ccc(Nc2nc(OC3CCCC3)c3c(-c4ccc5nc(C)oc5c4)c[nH]c3n2)c(OC)c1"
  GROUP_LABEL: "rule not met"
- COMPOUND: "CC(=O)O[C@H]1C(=O)[C@@]2(C)[C@H]([C@H](OC(=O)c3ccccc3)[C@]3(O)C[C@H](OC(=O)[C@H](O)[C@@H](NC(=O)c4ccccc4)c4ccccc4)C(C)=C1C3(C)C)[C@]1(OC(C)=O)CO[C@@H]1C[C@@H]2O + CNC(=O)c1ccc(Nc2nc(OC3CCCC3)c3c(-c4ccc5nc(C)oc5c4)c[nH]c3n2)c(OC)c1"
  GROUP_LABEL: "rule met"
- COMPOUND: "COc1cccc2c1C(=O)c1c(O)c3c(c(O)c1C2=O)CC(O)(C(=O)CO)CC3OC1CC(N)C(O)C(C)O1 (centres undefined) + CN1CCN(c2cc(C(=O)Nc3cc4cc(-c5cnn(C)c5)ccc4cn3)ccn2)CC1"
  GROUP_LABEL: "rule met"
- COMPOUND: "O=C(c1cc(Cc2n[nH]c(=O)c3ccccc23)ccc1F)N1CCN(C(=O)C2CC2)CC1 + CN1CCN(c2cc(C(=O)Nc3cc4cc(-c5cnn(C)c5)ccc4cn3)ccn2)CC1"
  GROUP_LABEL: "rule not met"
- COMPOUND: "CC(CO)NC(=O)c1cc(-c2ccc(Cl)cc2)nn(-c2cnn(C)c2)c1=O (centres undefined) + CN1CCN(c2cc(C(=O)Nc3cc4cc(-c5cnn(C)c5)ccc4cn3)ccn2)CC1"
  GROUP_LABEL: "rule not met"

Exercise: For COc1ccc([C@@H](O)c2cc(-c3ncnc4cc(N5CCOCC5)ccc34)c(F)cc2Cl)nn1 + CN1CCN(c2cc(C(=O)Nc3cc4cc(-c5cnn(C)c5)ccc4cn3)ccn2)CC1 , is the recorded viability, T/C below the cut-off of 60%?
Key: rule not met

Exercise: For CC(=O)O[C@H]1C(=O)[C@@]2(C)[C@H]([C@H](OC(=O)c3ccccc3)[C@]3(O)C[C@H](OC(=O)[C@H](O)[C@@H](NC(=O)c4ccccc4)c4ccccc4)C(C)=C1C3(C)C)[C@]1(OC(C)=O)CO[C@@H]1C[C@@H]2O + CN1CCN(c2cc(C(=O)Nc3cc4cc(-c5cnn(C)c5)ccc4cn3)ccn2)CC1 , is the recorded viability, T/C below the cut-off of 60%?
Key: rule met
